- Test system: Fibroblast
- PROTOCOL DETAILS: Multiplex assay against human fibroblast
- Assay type: toxicity, cell-based
- STATED CONDITIONS: 48 h, 1 µM, compound concentration 1 uM, replicate 1
Parameter threshold = 40%. Response is Condition met when Population Mitotic Cells (%) meets or exceeds it, else Condition not met.

CCOC(=O)c1c(C)[nH]c2ccc3c(c12)CN1CCc2cc(OC)ccc2C1O3 (configuration not stated)
Condition not met
Cc1ccc(C(=O)Nc2cccc(C(F)(F)F)c2)cc1Nc1nc(-c2cccnc2)nc2c1cnn2C
Condition met
O=C(Nc1ccc(-n2nc(-c3cccnc3)cc2C(F)(F)F)cn1)c1ccc(-c2ccccc2)c(F)c1 [BI 2049]
Condition not met

input: Entry Cl.O=c1c2cccn2c2ccccc2n1CCCN1CCC(c2ccc(Cl)cc2)CC1 : is its Population Mitotic Cells (%) no less than 40%?
output: Condition met

input: Likewise for CNc1cc(Oc2cc(C(=O)Nc3cc(N4CCN(C)CC4)cc(C(F)(F)F)c3)ccc2C)ncn1 ?
output: Condition not met

input: Likewise for O=C1N/C(=N/c2ccccc2F)S/C1=C\c1ccc(C(=O)O)cc1 ?
output: Condition met

====

Listing of entries alongside the reported Population Fragmented Nuclei (%).
- System: U2OS
- PROTOCOL DETAILS: Multiplex assay against U2OS
- Assay type: toxicity, cell-based
- STATED CONDITIONS: human, 12 h, 1 µM, compound concentration 1 uM, replicate 2
# number only, unit % dropped from output

NC(=O)c1cccc(-c2cc(Nc3ccc(OC(F)(F)F)cc3)ncn2)c1
16

input: What Population Fragmented Nuclei (%) value was documented for this molecule, C=C1/C(=C\C=C2/CCC[C@]3(C)[C@@H]([C@H](C)/C=C/[C@H](C)C(C)C)CC[C@@H]23)C[C@@H](O)C[C@@H]1O ?
output: 1

input: Likewise for CCCS(=O)(=O)Nc1ccc(F)c(C(=O)c2c[nH]c3ncc(Cl)cc23)c1F ?
output: 7

input: Likewise for O=C1N/C(=N/c2ccccc2F)S/C1=C\c1ccc(C(=O)O)cc1 ?
output: 3

====

- Tested on: HEK-293T
- PROTOCOL DETAILS: Incucyte cell viability with HEK293T; further: filed as whole numbers so only -1 and 0 and 1 occur
- Type: toxicity, cell-based
- STATED CONDITIONS: human, 0 h, 10 µM, compound concentration 10 uM, replicate number 2, timepoint 0 hours
ENDPOINT LABEL: Growth Rate

Cc1ccc2nc(CNCCCOc3ccccc3)cc(O)c2c1
1
CC(=O)C1=C(C)N(c2cccc(C(F)(F)F)c2)C(=O)N[C@@H]1c1ccc(C#N)nc1
1
CN(C)C(=O)C(CCN1CCC(O)(c2ccc(Cl)cc2)CC1)(c1ccccc1)c1ccccc1.Cl [LOPERAMIDE HYDROCHLORIDE]
1

Turning now to a further record.
input: What Growth Rate value was documented for this molecule, N#Cc1c[nH]c2c(C(=O)N3CCN(CCc4ccc(F)cc4)CC3)cccc12 ?
output: 0

====

- System: U2OS
- PROTOCOL DETAILS: Multiplex assay against U2OS
- Type: toxicity, cell-based
- STATED CONDITIONS: human, 48 h, 10 µM, compound concentration 10 uM, replicate 2
ENDPOINT LABEL: Population Hoechst High Intensity Objects (%)
# number only, unit % dropped from output

For orientation, consider the following solved cases.
CN1CCN(C(=O)C(C)(C)c2ccc(C(=O)Nc3cn4cc(-c5ccncc5)ccc4n3)cc2)CC1
23
O=C(Nc1ccc(-c2ccnc(Nc3ccc(N4CCOCC4)cc3)n2)cc1)[C@@H]1CCCN1
8
Cl.O=C(c1ccc(Nc2nccc(-c3cc4ccccc4s3)n2)cc1)N1CCC(N2CCCC2)CC1
44
CN1CCC(=C2c3ccccc3CC(=O)c3sccc32)CC1.O=C(O)/C=C/C(=O)O [KETOTIFEN FUMARATE]
7

input: What Population Hoechst High Intensity Objects (%) value was documented for this compound, O=C(Nc1ccc(-n2nc(-c3cccnc3)cc2C(F)(F)F)cn1)c1ccc(-c2ccccc2)c(F)c1 ?
output: 2

input: Likewise for CCN1CCN(Cc2ccc(Nc3ncc(F)c(-c4cc(F)c5nc(C)n(C(C)C)c5c4)n3)nc2)CC1.CS(=O)(=O)O ?
output: 34

input: Likewise for COc1cc(N2CCN(C)CC2)ccc1Nc1ncc2c(n1)N(C)c1ccccc1C(=O)N2C ?
output: 19

input: Likewise for CCOc1cc(C(=O)N2CCC(N3CCN(C)CC3)CC2)ccc1Nc1ncc2c(n1)N(C1CCCC1)c1ccccc1C(=O)N2C ?
output: 18

====

Listing of entries alongside the reported Population Healthy Nuclei (%).
- System: Fibroblast
- PROTOCOL DETAILS: Multiplex assay against human fibroblast
- Assay type: toxicity, cell-based
- STATED CONDITIONS: 12 h, 1 µM, compound concentration 1 uM, replicate 2
# number only, unit % dropped from output

For orientation, consider the following solved cases.
O=C(Nc1ccc(-c2ccnc(Nc3ccc(N4CCOCC4)cc3)n2)cc1)[C@@H]1CCCN1
76
Cc1cc(C)c(S(=O)(=O)N(Cc2ccc(-c3cccc(S(C)(=O)=O)c3)cc2)Cc2ccc(C(F)(F)F)o2)c(C)c1
80

input: What Population Healthy Nuclei (%) value was documented for this compound, CCCn1c(=O)c2[nH]c(-c3cnn(Cc4cccc(C(F)(F)F)c4)c3)nc2n(CC)c1=O ?
output: 88

====

- System: HEK-293T
- PROTOCOL DETAILS: Multiplex assay against HEK293T;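 further: share of the cells with healthy nuclei that show this phenotype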
- Assay type: toxicity, cell-based
- STATED CONDITIONS: human, 12 h, 1 µM, compound concentration 1 uM, replicate 1
Listing of entries alongside the reported Population Tubulin-Different-Phenotype (%).
# number only, unit % dropped from output

O=C(Nc1ccc(-c2ccnc(Nc3ccc(N4CCOCC4)cc3)n2)cc1)[C@@H]1CCCN1
50
Cl.O=c1c2cccn2c2ccccc2n1CCCN1CCC(c2ccc(Cl)cc2)CC1
80
COC(=N)c1nc2ccc3ncnc(Nc4ccc(OC)cc4F)c3c2s1
5

input: What Population Tubulin-Different-Phenotype (%) value was documented for this compound, Cc1ccc2nc(NCCN)c3ncc(C)n3c2c1.O=C(O)C(F)(F)F.O=C(O)C(F)(F)F ?
output: 3

input: Likewise for COc1ccc(-c2ccc3c(N4CCOCC4)nc(N4C[C@@H](C)O[C@@H](C)C4)nc3n2)cc1CO ?
output: 3

input: Likewise for Cn1nc(C(F)(F)F)cc1-c1cnc(N2CCc3cc(S(=O)(=O)Nc4c(F)cc(Cl)cc4F)cc(N4CCCC4=O)c32)nc1 ?
output: 16

input: Likewise for CCc1cccc(CC)c1NC(=O)c1nn(C)c2c1CCc1cnc(Nc3ccc(C(=O)NC4CCN(C)CC4)cc3OC(F)(F)F)nc1-2 ?
output: 68

input: Likewise for COc1cc2ncnc(Nc3ccc(F)c(Cl)c3)c2cc1NC(=O)/C=C/CN1CCCCC1 [DACOMITINIB ANHYDROUS] ?
output: 72

input: Likewise for CCCn1c(=O)c2[nH]c(-c3cnn(Cc4cccc(C(F)(F)F)c4)c3)nc2n(CC)c1=O ?
output: 67

input: Likewise for O=C(Cc1ccc(-c2ccc(OCCN3CCOCC3)cc2)cn1)NCc1ccccc1 ?
output: 2

input: Likewise for C=C1/C(=C\C=C2/CCC[C@]3(C)[C@@H]([C@H](C)/C=C/[C@H](C)C(C)C)CC[C@@H]23)C[C@@H](O)C[C@@H]1O ?
output: 12

input: Likewise for NC(=O)c1cccc(-c2cc(Nc3ccc(OC(F)(F)F)cc3)ncn2)c1 ?
output: 3

input: Likewise for CCN1CCN(c2ccc(Nc3cc(N(C)C(=O)Nc4c(Cl)c(OC)cc(OC)c4Cl)ncn3)cc2)CC1 ?
output: 52

input: Likewise for CN1CCC(=C2c3ccccc3CC(=O)c3sccc32)CC1.O=C(O)/C=C/C(=O)O [KETOTIFEN FUMARATE] ?
output: 40

input: Likewise for O=C1NC(=O)C(c2cnc3ccccn23)=C1c1cn2c3c(cc(F)cc13)CN(C(=O)N1CCCCC1)CC2 ?
output: 89

input: Likewise for Cc1cc(C)c(S(=O)(=O)N(Cc2ccc(-c3cccc(S(C)(=O)=O)c3)cc2)Cc2ccc(C(F)(F)F)o2)c(C)c1 ?
output: 59

input: Likewise for CN[C@@H]1C[C@H]2O[C@@](C)([C@@H]1OC)n1c3ccccc3c3c4c(c5c6ccccc6n2c5c31)C(=O)NC4 ?
output: 32

====

- System: Fibroblast
- PROTOCOL DETAILS: Multiplex assay against human fibroblast
- Assay type: toxicity, cell-based
- STATED CONDITIONS: 12 h, 10 µM, compound concentration 10 uM, replicate 2
Listing of entries alongside the reported Population Tubulin-Different-Phenotype (%).
# number only, unit % dropped from output

For orientation, consider the following solved cases.
Cl.Oc1ccc2c3c1O[C@H]1c4[nH]c5c(c4C[C@@]4(O)[C@@H](C2)N(CC2CC2)CC[C@]314)C[C@@]1(O)[C@H]2Cc3ccc(O)c4c3[C@@]1(CCN2CC1CC1)[C@H]5O4
89
CCn1cc(-c2ccnc3[nH]c(-c4cccc(CN(C)C)c4)cc23)c(-c2ccc(NC(=O)N(C)C)cc2)n1
52
CCc1cccc(CC)c1NC(=O)c1nn(C)c2c1CCc1cnc(Nc3ccc(C(=O)NC4CCN(C)CC4)cc3OC(F)(F)F)nc1-2
86
CCCn1c(=O)c2[nH]c(-c3cnn(Cc4cccc(C(F)(F)F)c4)c3)nc2n(CC)c1=O
10
CNc1cc(Oc2cc(C(=O)Nc3cc(N4CCN(C)CC4)cc(C(F)(F)F)c3)ccc2C)ncn1
66

input: What Population Tubulin-Different-Phenotype (%) value was documented for this molecule, CCn1c(=O)c(-c2ccc(-c3cncs3)cc2Cl)cc2cnc(Nc3ccc(N4CCN(C)CC4)cc3)nc21 ?
output: 15
